# experiment_description: Human HepG2 cell viability assay in 384 well format
# Type: toxicity, cell-based
# Set-up: dose 125 nL, time 70.5 hour; concentration not given beside the values
# reported_conditions: HepG2 cells, read-out: Inhibition
property_measured: cytotoxicity at 70.5 h (%)

> print(dat)
                                    molecule       property.measured  recorded.measurement
 1   O=C(COCc1ccco1)Nc1cc(C(F)(F)F)c[nH]c1=O  cytotoxicity at 70.5 h                  31.5
 2  COCCN1CCN(Cc2ccc(C(C)=O)cc2)[C@H]2CS(=O)(=O)C[C@H]21  cytotoxicity at 70.5 h                 -5.05
 3          CN1CCCN(C(=O)NCCNc2ncccc2C#N)CC1  cytotoxicity at 70.5 h                 -2.49
 4  O=C(c1ccsc1)N1C[C@@H]2CCN(C(=O)c3cccc(F)c3)[C@@H]2C1  cytotoxicity at 70.5 h                 -11.5
 5        CC(C)CN1Cc2nc(N3CCC(O)CC3)ncc2C1=O  cytotoxicity at 70.5 h                  12.9
 6    O=C(c1cnn(-c2ccccc2Cl)c1)N1CCN(CCO)CC1  cytotoxicity at 70.5 h                 -5.36
 7  CC(=O)N1CCO[C@@H]2CN(S(=O)(=O)C3CC3)C[C@@H]2C1  cytotoxicity at 70.5 h                -0.958
 8  COc1ccc2c(c1)CCN2Cc1nc2c(cnn2C)c(=O)[nH]1  cytotoxicity at 70.5 h                 -9.79
 9           CNC(=O)c1cnc2n1CCN(Cc1cccnc1)C2  cytotoxicity at 70.5 h                 -2.74
10  CC(C)(C)c1ccc(OCC(=O)O)c(CN2C[C@H]3C[C@H](O)C[C@H]3C2)c1  cytotoxicity at 70.5 h                  2.38
11  Cc1c(C(=O)NCC2CCN(C)C2)n(C)c2c(C)cccc12 (stereo not drawn)  cytotoxicity at 70.5 h                 -7.34
12  COc1ccccc1CN1C[C@@H]2COC[C@]2(COCc2ccncc2)C1  cytotoxicity at 70.5 h                 -10.2
13  CC(=O)N1Cc2ccccc2C[C@H]1C(=O)N(C)Cc1ccccn1  cytotoxicity at 70.5 h                 -14.8
14  Cn1c(C(F)(F)F)nn(CCNC(=O)Nc2ccccc2F)c1=O  cytotoxicity at 70.5 h                 -7.97
15  CCC(CO)NC(=O)Nc1ccc(OCC(F)(F)F)c(C)c1 (stereo not drawn)  cytotoxicity at 70.5 h                 -1.78
16    COc1ccc(NC(=O)Nc2c(O)c3ccccc3oc2=O)cc1  cytotoxicity at 70.5 h                 -1.02
17           CN(C)CCOCc1nnc2n1CCN(CC1CC1)CC2  cytotoxicity at 70.5 h                  25.8
18  CC(CNC(=O)c1ccc(C#N)cc1)N1CCc2ccccc21 (stereo not drawn)  cytotoxicity at 70.5 h                 0.334
19  O=C(CCn1c(=O)oc2ccccc21)NCC(O)c1ccccc1 (stereo not drawn)  cytotoxicity at 70.5 h                 -3.91
20  Cc1c(CN(C)c2cc(C3CCCNC3)ncn2)[nH]c2ccccc12 (stereo not drawn)  cytotoxicity at 70.5 h                 -14.2
21  COCCCN1C(=O)c2ccc(C(=O)NCCc3c[nH]cn3)cc2C1=O  cytotoxicity at 70.5 h                  1.41
22  CC1CCCN(C(=O)NCC(F)F)C1 (stereo not drawn)  cytotoxicity at 70.5 h                 -4.81
23  CCN1C(=O)CCC12CCCN(Cc1nccs1)CC2 (stereo not drawn)  cytotoxicity at 70.5 h                 -8.57

###

# experiment_description: Human HepG2 cell viability assay in 384 well format
# Assay type: toxicity, cell-based
# Design: dose 125 nL, time 70.5 hour; concentration not given beside the values
# reported_conditions: HepG2 cells, read-out: Inhibition
property_measured: cytotoxicity at 70.5 h (%)

> print(dat)
                                    molecule  recorded.measurement
 1  CC(C)Cc1noc(CN2CCN(C(=O)c3cccc(F)c3)CC2)n1                  -3.6
 2  Cc1nn(C)c(Oc2ccc(Cl)cc2)c1CN1CC[C@H](CO)[C@@H](O)C1                 -12.9
 3       CCNC(=O)CCC(=O)NC1(c2cccc(Br)c2)CC1                 -2.97
 4  CSCC(=O)N1CCCC(CCC(=O)N(C)CCc2ccccn2)C1 (stereo not drawn)                  9.62
 5  CC(C)C(Sc1cccs1)C(=O)NCc1cccnc1 (stereo not drawn)                 -14.6
 6  CSC(C)C(=O)N1CCCN(c2ncccc2C#N)CC1 (stereo not drawn)                  12.4
 7      Cn1nc(C2CCCC2)c(-c2ccc3c(c2)OCO3)c1N                 -8.03
 8  CCSCCNC(=O)C(c1cccc(C)c1)N(C)C (stereo not drawn)                  35.5
 9  O=C(NCC1=CCCCC1)C(c1cccnc1)N1CCCC1 (stereo not drawn)                  31.3
10  CC(O)CN1CCN(C(=O)c2cc3ccccc3n2C)CC1 (stereo not drawn)                  14.8
11  CNS(=O)(=O)CCCN1CCCC1c1cc(C)on1 (stereo not drawn)                  1.72
12  Cc1cc(C)c2cc(CNCc3ccc(C)o3)c3nn(C)c(=O)n3c2c1                 -5.87
13  COC(=O)C(C)CN(Cc1ccccc1)C(=O)CN1CCCNC1=O (stereo not drawn)                -0.248
14  O=C(CCSc1ccc2c(c1)OCCO2)NCC1CCS(=O)(=O)C1 (stereo not drawn)                 -3.43
15  N#Cc1cnn(CCN2CCOC(CNc3cccnn3)C2)c1 (stereo not drawn)                  4.89
16  O=C(c1ccon1)N1CCCCC1c1nc2cc(F)ccc2[nH]1 (stereo not drawn)                 -5.01
17  CN1CCN(C(=O)c2cncc(CC3CCCN(C)C3)c2)CC1 (stereo not drawn)                  24.9
18             Cc1nc(CSCCC(=O)NCc2ccncc2)cs1                 -6.44
19    Cc1ccc(CN2CCC3(CC2)C(=O)N(CCO)CCN3C)o1                 -3.64
20  Cc1nc(C)n(CC(C)C(=O)N2CCCN(C3CCCC3)CC2)n1 (stereo not drawn)                 -6.07
21  Cn1cc(CN2CCCCC2c2ccc(-c3cccc(F)c3)nc2)cn1 (stereo not drawn)                 -1.71
22    CC(C)c1nc(CNc2ccc(N3CCC(CO)CC3)cn2)cs1                   1.5
23  CNC(=O)COC(=O)c1cccc(-n2ccc(C(F)(F)F)n2)c1                  0.44
24  COc1cccc(OC)c1CN1CC(O)CN(S(C)(=O)=O)CC1=O (stereo not drawn)                  25.6
25  CNC(=O)C1(c2cnccn2)CCCN1C(=O)c1ccccc1 (stereo not drawn)                  17.8
26  OC1(CNCCc2csc(-c3cccnc3)n2)CCNC1 (stereo not drawn)                 -14.2
27            CC1CCN(C(=O)c2cccc3ncccc23)CC1                  4.77
28           COCCN(Cc1ccoc1)C(=O)c1ccc(Cl)s1                  -6.8
29  CCN(CC)Cc1cc(C(=O)N2CCC3(CC2)NCCNC3=O)c(C)o1                  1.97
30  COCCN1CCC(NC(=O)NCC2(c3ccccc3)CC2)C1 (stereo not drawn)                  -9.2
31                CCCn1nccc1C(=O)Nc1ncc(C)s1                 -11.3
32   Cc1cccc(OC2CCN(C(=O)CNC(=O)N(C)C)CC2)c1                -0.834
33  Cc1cn2c(n1)CCC(NC(=O)c1ccc(S(C)(=O)=O)o1)C2 (stereo not drawn)                  6.89
34  C=Cc1ccc(CSc2nc3c(c(=O)[nH]2)CN(CCC)CC3)cc1                  8.58
35      O=C(C1CC1)N1CC[C@H](c2nc3ccccc3o2)C1                  5.84
36  CN(C)C(=O)CCC[S+]([O-])Cc1ccc(F)c(F)c1 (stereo not drawn)                  13.1
37  CN(C)C(=O)C1CCc2nnc(CNC(=O)c3ccc(Cl)cc3Cl)n21 (stereo not drawn)                  2.11
38  CC(C(=O)N1CCc2ccccc2C1)n1cc(Br)cn1 (stereo not drawn)                 -13.3
39  CC(=O)N1CCN2C(=O)N(Cc3ccc(F)cc3)C[C@H]2C1                   -13
40  CCc1nc(CCNC(=O)C2CCOC2)sc1C (stereo not drawn)                 -2.78
41  CN(Cc1nccn1CC(F)(F)F)C(=O)c1ccc2c(c1)OCO2                   -11
42  CC(C)N1CCC(Cc2cncc(-c3cccc(C(=O)O)c3)n2)C1 (stereo not drawn)                 -5.63
43  O=S(=O)(N1CCCC1)N1C[C@@H](c2cccc(F)c2)[C@@H]2NCCCCC[C@H]21                 -6.83
44  CN(Cc1nnc(C2CC2)n1C)C1CCN(Cc2ccc(F)cc2)C1 (stereo not drawn)                 -6.24
45     c1cnc(-c2nc(CN3CCN(CC4CC4)CC3)cs2)nc1                  -5.7
46  CN1CCc2[nH]nc(C(=O)N3CCCC4(CC3)CNC(=O)O4)c2C1 (stereo not drawn)                 -3.37
47  CCOc1ccccc1C(CC(=O)Nc1nc(C)cs1)NC(C)=O (stereo not drawn)                 -8.99
48    Cc1csc(C2(NCc3ccc(OCC(F)F)cc3)CCCC2)n1                  -5.7
